target: endothelin receptor (membrane of smooth muscle tissue of porcine aorta) (Sus scrofa, UniProt Q29010); construct: from tissue; host or cells: porcine aorta smooth muscle, membrane fraction; experiment: Endothelin binding inhibition test (125I-endothelin-1, porcine aorta smooth muscle membrane); settings: 1.1 μM test compound (no mark); read-out: 125I-endothelin-1 binding inhibition
Sequence (Q29010 21-427): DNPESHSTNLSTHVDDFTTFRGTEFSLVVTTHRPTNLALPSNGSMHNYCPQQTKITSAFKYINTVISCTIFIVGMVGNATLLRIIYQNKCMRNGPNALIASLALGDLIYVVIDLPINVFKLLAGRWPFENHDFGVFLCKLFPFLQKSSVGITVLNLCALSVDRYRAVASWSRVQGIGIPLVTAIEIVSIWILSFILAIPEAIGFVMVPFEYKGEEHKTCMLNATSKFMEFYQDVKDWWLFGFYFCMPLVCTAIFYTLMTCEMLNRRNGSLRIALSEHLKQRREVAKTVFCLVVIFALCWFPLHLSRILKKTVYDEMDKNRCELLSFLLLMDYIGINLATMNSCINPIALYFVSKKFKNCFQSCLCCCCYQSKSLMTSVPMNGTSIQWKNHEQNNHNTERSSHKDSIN
Square brackets hold non-standard residues; d marks the D form. Peptide text beside a SMILES is read from it. * marks the point of attachment. β3hF = N[C@H](CC(=O)O)Cc1ccccc1; Boc = CC(C)(C)OC(=O)*; Dha = C=C(N)C(=O)O
Observation type: inhibition at 1.1 µM (%)

I would be grateful if you could share the reported inhibition at 1.1 µM for CC(C)C[C@H](NC(=O)OC(C)(C)C)C(=O)N[C@H](Cc1c[nH]c2ccccc12)C(=O)N[C@H](CC(=O)O)Cc1ccccc1 [Compound 21] (Boc-Leu-[dW]-[β3hF]-OH) . 39

I would be grateful if you could share the reported inhibition at 1.1 µM for C=C(NC(=O)[C@@H](Cc1c[nH]c2ccccc12)NC(=O)[C@H](CC(C)C)NC(=O)OC(C)(C)C)C(=O)O [Compound 133] (Boc-Leu-[dW]-[Dha]-OH) . 41

I would be grateful if you could share the reported inhibition at 1.1 µM for CCOC(=O)CCNC(=O)[C@@H](Cc1c[nH]c2ccccc12)NC(=O)[C@H](CC(C)C)NC(=O)N1CCCCCC1 . 40

* * *

molecular target: endothelin receptor (membrane of smooth muscle tissue of porcine aorta) (Sus scrofa, UniProt Q29010); construct: from tissue; host or cells: porcine aorta smooth muscle, membrane fraction; experiment: Endothelin binding inhibition test (125I-endothelin-1, porcine aorta smooth muscle membrane); conditions: 10 μM test compound (marked *); read-out: 125I-endothelin-1 binding inhibition
Square brackets hold non-standard residues; d marks the D form. Peptide text beside a SMILES is read from it. * marks the point of attachment. Boc = CC(C)(C)OC(=O)*
Observation type: inhibition at 10 µM (%)

I would be grateful if you could share the reported inhibition at 10 µM for CC(C)C[C@H](NC(=O)CC(C)(C)C)C(=O)N[C@H](Cc1c[nH]c2ccccc12)C(=O)NCCC(=O)O [Compound 68] . 58

I. CC(C)C[C@H](NC(=O)OC(C)(C)C)C(=O)N[C@H](Cc1c[nH]c2ccccc12)C(=O)N[C@H](CC(N)=O)C(=O)O [Compound 9] (Boc-Leu-[dW]-[dN]-OH)
II. CC(C)C[C@H](NC(=O)OC(C)(C)C)C(=O)N[C@H](Cc1c[nH]c2ccccc12)C(=O)N[C@@H](C(=O)O)C(C)C [Compound 43] (Boc-Leu-[dW]-[dV]-OH)
Compare reported inhibition at 10 µM values for I and II . Which is lower? Returns: label corresponding to the selected item. II

* * *

target: endothelin receptor (membrane of smooth muscle tissue of porcine aorta) (Sus scrofa); construct: from tissue; host or cells: porcine aorta smooth muscle, membrane fraction; assay: Endothelin binding inhibition test (125I-endothelin-1, porcine aorta smooth muscle membrane); conditions: 1.1 μM test compound (no mark); read-out: 125I-endothelin-1 binding inhibition
Square brackets hold non-standard residues; d marks the D form. Peptide text beside a SMILES is read from it. * marks the point of attachment. PhAc = O=C(Cc1ccccc1)*; Boc = CC(C)(C)OC(=O)*; Bn = c1ccc(C*)cc1; βAla = NCCC(=O)O
Observation type: inhibition at 1.1 µM (%)

1. CC(C)C[C@H](NC(=O)OC(C)(C)C)C(=O)N[C@H](Cc1c[nH]c2ccccc12)C(=O)N[C@H](CO)C(=O)O [Compound 7] (Boc-Leu-[dW]-[dS]-OH)
2. CC(C)C[C@H](NC(=O)N1CCCCCC1)C(=O)N[C@H](Cc1c[nH]c2ccccc12)C(=O)NN1CCC[C@H]1C(=O)O
Hi team, can someone confirm which has the larger inhibition at 1.1 µM: 1 or 2 ? Thanks. Returns: label corresponding to the selected item. 2

1. CC(C)C[C@H](NC(=O)OC(C)(C)C)C(=O)N[C@H](Cc1c[nH]c2ccccc12)C(=O)N[C@H](CCC(N)=O)C(=O)O [Compound 10] (Boc-Leu-[dW]-[dQ]-OH)
2. CC(C)C[C@H](NC(=O)OC(C)(C)C)C(=O)N[C@H](Cc1c[nH]c2ccccc12)C(=O)N[C@@H](C(=O)O)c1cccs1
3. CC(C)C[C@H](NC(=O)C1CCCCCC1)C(=O)N[C@H](Cc1c[nH]c2ccccc12)C(=O)N[C@H](Cc1c[nH]c2ccccc12)C(=O)O
Order the records, beginning with the lowest inhibition at 1.1 µM and ending with the highest. Rank them, then answer with their labels in that order. 1, 2, 3
(1: 32%, 2: 56%, 3: 87%)

a. CC(C)C[C@H](NC(=O)Cc1ccccc1)C(=O)N[C@H](Cc1c[nH]c2ccccc12)C(=O)NCCC(=O)O [Compound 70] (PhAc-Leu-[dW]-[βAla]-OH)
b. CC(C)C[C@H](NC(=O)OC(C)(C)C)C(=O)N[C@H](Cc1c[nH]c2ccccc12)C(=O)N[C@H](Cc1ccc(OCc2ccccc2)cc1)C(=O)O [Compound 137] (Boc-Leu-[dW]-[dY](Bn)-OH)
Compare reported inhibition at 1.1 µM values for a and b . Which is lower? Returns: label corresponding to the selected item. a
(a: 32%, b: 46%)

The reported numbers originate from patent US5470833A.
